The values you see were collected from the Human Domainome abundance scans (Beltran et al. 2025).

B1: Intersectin-1, residues 909 to 971; numbered along this chain, Q15811 (parent)
chain: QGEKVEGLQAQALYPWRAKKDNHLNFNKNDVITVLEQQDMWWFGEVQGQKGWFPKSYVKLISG

variants of: B1; assay: abundance fitness (aPCA) (normalised: wild type 0, dead -1); higher = more abundant; growth selection in yeast, the domain comes from the species named; conditions: Homo sapiens
For each record, write down the corresponding abundance fitness.
Could you respond with only the numeric value?

Supply reported abundance fitness belonging to this variant: `V5Q`
-0.029

Supply reported abundance fitness belonging to this variant: `S56K`
-0.251

Supply reported abundance fitness belonging to this variant: `A10V`
0.095

Supply reported abundance fitness belonging to this variant: `N25V`
-0.207

Supply reported abundance fitness belonging to this variant: `F43W`
-0.061

Supply reported abundance fitness belonging to this variant: `G2K`
0.076

Supply reported abundance fitness belonging to this variant: `Q49V`
-0.065

Supply reported abundance fitness belonging to this variant: `K55Q`
-0.005

Supply reported abundance fitness belonging to this variant: `V34P`
-0.646

Supply reported abundance fitness belonging to this variant: `Y14G`
-0.159

Supply reported abundance fitness belonging to this variant: `N25M`
-0.087

Supply reported abundance fitness belonging to this variant: `K4Q`
-0.39

Supply reported abundance fitness belonging to this variant: `W42G`
-0.734

Supply reported abundance fitness belonging to this variant: `D21G`
-0.068

Supply reported abundance fitness belonging to this variant: `I32F`
-0.423

Supply reported abundance fitness belonging to this variant: `L8Q`
0.05

Supply reported abundance fitness belonging to this variant: `L35A`
-0.612

Supply reported abundance fitness belonging to this variant: `W41D`
-0.245

Supply reported abundance fitness belonging to this variant: `K4S`
-0.014

Supply reported abundance fitness belonging to this variant: `N22M`
-0.4

Supply reported abundance fitness belonging to this variant: `Y14H`
-0.103

Supply reported abundance fitness belonging to this variant: `Q11E`
-0.33

Supply reported abundance fitness belonging to this variant: `V46M`
-0.048

Supply reported abundance fitness belonging to this variant: `I61M`
-0.383

Supply reported abundance fitness belonging to this variant: `I61V`
0.095

Supply reported abundance fitness belonging to this variant: `L13R`
-0.126

Supply reported abundance fitness belonging to this variant: `K59E`
-0.128

Supply reported abundance fitness belonging to this variant: `F26I`
-0.072

Supply reported abundance fitness belonging to this variant: `S62Q`
0.067

Supply reported abundance fitness belonging to this variant: `W41N`
-0.154

Supply reported abundance fitness belonging to this variant: `N29M`
-0.034
